Source listed as PubChem BioAssay (EPA / NIEHS).

biological target: chimpanzee Androgen Receptor (AR), AR (gene 747460) (UniProt O97775); assay: NVS_NR_cAR: NovaScreen (NVS) Nuclear Receptor Binding Assay for chimpanzee Androgen Receptor (AR) (AID 2283346);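 also: radioligand displacement from AR measured by scintillation counting in a cell-free assay; a loss of bound radioligand signal versus DMSO counts as binding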
Sequence (O97775 whole entry, looked up): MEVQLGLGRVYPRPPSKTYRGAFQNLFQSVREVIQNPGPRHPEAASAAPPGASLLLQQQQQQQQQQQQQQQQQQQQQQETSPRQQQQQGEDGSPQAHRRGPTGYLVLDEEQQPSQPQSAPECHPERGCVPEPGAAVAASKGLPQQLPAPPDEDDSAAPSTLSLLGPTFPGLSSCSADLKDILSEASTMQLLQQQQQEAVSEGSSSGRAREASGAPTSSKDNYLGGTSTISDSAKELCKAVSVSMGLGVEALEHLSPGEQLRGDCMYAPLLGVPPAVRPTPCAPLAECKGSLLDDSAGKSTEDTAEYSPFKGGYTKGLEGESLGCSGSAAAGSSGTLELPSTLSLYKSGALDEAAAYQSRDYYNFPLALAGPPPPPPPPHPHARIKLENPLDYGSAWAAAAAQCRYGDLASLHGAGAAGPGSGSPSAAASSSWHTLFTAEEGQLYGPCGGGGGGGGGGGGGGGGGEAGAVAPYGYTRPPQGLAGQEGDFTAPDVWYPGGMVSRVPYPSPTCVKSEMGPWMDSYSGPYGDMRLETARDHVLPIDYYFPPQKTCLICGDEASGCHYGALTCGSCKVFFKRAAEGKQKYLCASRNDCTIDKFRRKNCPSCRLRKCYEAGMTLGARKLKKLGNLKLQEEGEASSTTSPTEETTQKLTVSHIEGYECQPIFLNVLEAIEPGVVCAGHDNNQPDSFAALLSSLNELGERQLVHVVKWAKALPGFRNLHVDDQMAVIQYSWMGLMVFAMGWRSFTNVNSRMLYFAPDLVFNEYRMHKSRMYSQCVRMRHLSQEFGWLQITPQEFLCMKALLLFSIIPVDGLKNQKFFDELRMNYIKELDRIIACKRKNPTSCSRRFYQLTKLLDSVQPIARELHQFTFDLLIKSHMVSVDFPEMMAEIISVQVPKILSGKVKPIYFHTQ
Records with an inconclusive call do not appear. Calls of active or inactive are those of the source. The calls were made as follows: active = hit-call score of the fitted dose curve at least 0.9, where 1 is the maximum; inconclusive = response in the unintended direction; inactive = score below 0.9.
Possible outcomes: active, inactive

compound: O=P(OC(CCl)CCl)(OC(CCl)CCl)OC(CCl)CCl
class: active
//
compound: CCCCCCc1ccc(O)cc1O
class: inactive
//
compound: Nc1nc2ncc(CNc3ccc(C(=O)N[C@@H](CCC(=O)O)C(=O)O)cc3)nc2c(=O)[nH]1
class: inactive
//
compound: O=C(O)c1cc(N=Nc2ccc(S(=O)(=O)Nc3ccccn3)cc2)ccc1O
class: active
//
compound: CC[C@H](C)C(=O)O[C@H]1C[C@@H](C)C=C2C=C[C@H](C)[C@H](CC[C@@H]3C[C@@H](O)CC(=O)O3)[C@H]21
class: active
//
compound: CCc1cc(SCc2sc(-c3ccc(C(F)(F)F)cc3)nc2CN2CCN(c3ccc(OC)cc3)CC2)ccc1OCC(=O)O
class: active
//
compound: CC(C)=CCC/C(C)=C\CO
class: inactive
//
compound: O=C(O)c1cccc(N(Cc2cccnc2)c2ccc(OC(F)F)c(OC(F)F)c2)c1
class: active
//
compound: CCOc1cccc(-n2cc(C(=O)N3CCN(c4cc(C(=O)O)c5ccccc5c4)CC3)nc2-c2ccc(C)cc2)c1
class: active
//
compound: CNS(=O)(=O)c1cc(C(=O)N2CCC(CCN3C4CCC3CC(n3c(C)nc5ccccc53)C4)(c3cccc(F)c3)CC2)c(Cl)cc1F (stereo unspecified)
class: active
//
compound: COc1ccc2sc(C(=O)Nc3nnn[nH]3)c(OC(C)C)c2c1
class: inactive

###

molecular target: Hepatocyte nuclear factor 4-alpha (Homo sapiens) (UniProt P41235); assay: ATG_HNF4a_TRANS: Attagene TRANS-FACTORIAL HepG2 Assay for human Hepatocyte Nuclear Factor 4 alpha (HNF4a) (AID 2282982); settings: HepG2 HNF4a transactivation reporter, mRNA readout
Sequence (P41235 whole entry, looked up): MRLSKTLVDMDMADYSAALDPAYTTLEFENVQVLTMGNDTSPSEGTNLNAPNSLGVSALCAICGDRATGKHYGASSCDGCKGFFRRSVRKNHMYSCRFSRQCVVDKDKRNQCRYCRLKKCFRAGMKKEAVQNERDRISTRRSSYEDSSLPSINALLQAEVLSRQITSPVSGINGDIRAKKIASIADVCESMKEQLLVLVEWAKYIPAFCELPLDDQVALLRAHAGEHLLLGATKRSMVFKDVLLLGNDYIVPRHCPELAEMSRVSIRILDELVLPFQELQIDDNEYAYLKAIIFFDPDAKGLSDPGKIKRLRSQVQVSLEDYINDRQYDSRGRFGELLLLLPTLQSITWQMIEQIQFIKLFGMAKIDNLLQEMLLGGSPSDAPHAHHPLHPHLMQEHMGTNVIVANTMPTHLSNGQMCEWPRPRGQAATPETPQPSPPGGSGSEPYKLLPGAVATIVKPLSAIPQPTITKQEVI
Results filed as inconclusive are left out. The source made the active and inactive calls. How the source made its calls: active means hit-call score of the fitted dose curve at least 0.9, where 1 is the maximum; inconclusive means response in the unintended direction; inactive means score below 0.9.

molecule: On1ccccc1=S
outcome: inactive

molecule: Oc1ccc2c(c1)-c1ccccc1C2
outcome: inactive

molecule: CCc1cc(SCc2sc(-c3ccc(C(F)(F)F)cc3)nc2CN2CCN(c3ccc(OC)cc3)CC2)ccc1OCC(=O)O
outcome: inactive

molecule: CCCN(C1CCN(C(=O)C2CCNCC2)CC1)[C@@H]1CCc2ccc(OC)cc2C1
outcome: inactive

molecule: O=C1OC(=O)C2C3C=CC(C3)C12 (stereo not drawn)
outcome: inactive

molecule: CC[C@H](C)C(=O)O[C@H]1C[C@@H](C)C=C2C=C[C@H](C)[C@H](CC[C@@H]3C[C@@H](O)CC(=O)O3)[C@H]21
outcome: inactive

molecule: CCCCCCCCO
outcome: inactive

molecule: O=c1n(CC2CO2)c(=O)n(CC2CO2)c(=O)n1CC1CO1 (stereo not drawn)
outcome: inactive

molecule: CNCc1ccc(NC(=O)c2c[nH]c3c2C(=O)CCC3)cc1
outcome: inactive

molecule: COc1ccc(-n2nc(C(F)F)cc2-c2ccc(S(C)=O)cc2)cc1 (stereo not drawn)
outcome: inactive

molecule: Fc1ccccc1[C@@H](F)COC1CCC(Nc2ncnc3[nH]ncc23)CC1 (stereo partly drawn)
outcome: inactive

molecule: COC(=O)CC(=O)OC
outcome: inactive

molecule: Cc1ccc(S(=O)(=O)O)cc1C
outcome: inactive

###

biological target: human Peroxisome Proliferator-activated Receptor delta (PPARd), PPARD (gene 5467) (UniProt Q03181); test: ATG_PPARd_TRANS: Attagene TRANS-FACTORIAL HepG2 Assay for human Peroxisome Proliferator-activated Receptor delta (PPARd) (AID 2283002)
Sequence (Q03181 whole entry, looked up): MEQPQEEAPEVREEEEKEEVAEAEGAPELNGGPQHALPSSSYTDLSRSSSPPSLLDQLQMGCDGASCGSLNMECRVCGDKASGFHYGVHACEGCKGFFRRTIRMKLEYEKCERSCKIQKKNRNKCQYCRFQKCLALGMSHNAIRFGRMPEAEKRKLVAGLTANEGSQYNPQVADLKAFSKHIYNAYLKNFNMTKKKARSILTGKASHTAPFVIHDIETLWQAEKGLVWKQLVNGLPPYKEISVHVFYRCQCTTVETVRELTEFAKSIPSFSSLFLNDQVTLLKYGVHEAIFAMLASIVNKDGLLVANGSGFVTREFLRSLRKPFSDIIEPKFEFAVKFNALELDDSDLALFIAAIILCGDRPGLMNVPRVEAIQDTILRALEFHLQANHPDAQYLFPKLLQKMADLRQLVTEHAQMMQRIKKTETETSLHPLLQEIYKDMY
Records with an inconclusive call do not appear. Calls of active or inactive are those of the source. The calls were made as follows: active = hit-call score of the fitted dose curve at least 0.9, where 1 is the maximum; inconclusive = response in the unintended direction; inactive = score below 0.9.
Possible outcomes: active, inactive

molecule: CCCCCCCCCCCCc1ccccc1
class: inactive
//
molecule: CCCCC(CC)COC(=O)CCCCCCCCC(=O)OCC(CC)CCCC (centres undefined)
class: inactive
//
molecule: COc1ccc(-n2nc(C(F)F)cc2-c2ccc(S(C)=O)cc2)cc1 (centres undefined)
class: inactive
//
molecule: Cc1ccc(S(=O)(=O)O)cc1C
class: inactive
//
molecule: COc1cccc(-c2ccc(/C=C\CN3CCCCCC3)cc2Cl)c1
class: inactive
//
molecule: Oc1ccc2c(c1)-c1ccccc1C2
class: inactive
//
molecule: Cc1ccc(N)cc1O
class: inactive
//
molecule: Fc1ccccc1[C@@H](F)COC1CCC(Nc2ncnc3[nH]ncc23)CC1 (some centres undefined)
class: inactive
//
molecule: CCc1cc(SCc2sc(-c3ccc(C(F)(F)F)cc3)nc2CN2CCN(c3ccc(OC)cc3)CC2)ccc1OCC(=O)O
class: active
//
molecule: CC(O)CN(CCN(CC(C)O)CC(C)O)CC(C)O (centres undefined)
class: inactive
//
molecule: CCC(C)(C)C(=O)O[C@H]1C[C@@H](C)C=C2C=C[C@H](C)[C@H](CC[C@@H]3C[C@@H](O)CC(=O)O3)[C@H]21
class: inactive
//
molecule: Cc1ccc(C)c(O)c1
class: inactive
//
molecule: NC(=O)NO
class: inactive
//
molecule: COC(=O)c1c(Cl)c(Cl)c(C(=O)OC)c(Cl)c1Cl
class: inactive
//
molecule: O=C(CCCCCCCCc1cccnc1)N1CCC(C=C(c2ccccc2)c2ccccc2)CC1
class: inactive
//
molecule: CCOc1cccc(-n2cc(C(=O)N3CCN(c4cc(C(=O)O)c5ccccc5c4)CC3)nc2-c2ccc(C)cc2)c1
class: inactive
//
molecule: CCCN(C1CCN(C(=O)C2CCNCC2)CC1)[C@@H]1CCc2ccc(OC)cc2C1
class: inactive
//
molecule: O=C(O)c1cccc(N(Cc2cccnc2)c2ccc(OC(F)F)c(OC(F)F)c2)c1
class: inactive
//
molecule: CCNc1ccccc1
class: inactive
//
molecule: CN(C)c1ccc(N=NS(=O)(=O)O)cc1
class: inactive
//
molecule: COc1ccc2sc(C(=O)Nc3nnn[nH]3)c(OC(C)C)c2c1
class: inactive
//
molecule: CCOC(=O)COc1ccc2c(c1)CC(NCC(O)c1cccc(Cl)c1)CC2 (centres undefined)
class: inactive
//
molecule: C[C@](N)(Cc1ccc(O)c(O)c1)C(=O)O
class: inactive
//
molecule: COc1ccc(/C=C/S(=O)(=O)NC(=O)c2ccc(C)cc2Cl)cc1
class: inactive

###

test: Tanguay_ZF_120hpf_PIG_legacy: (Legacy) Oregon State University Tanguay Lab 120 Hour Post-fertilization zebrafish Assay for Pigmentation Malformation (AID 2283650);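 also: dechorionated Tropical 5D zebrafish embryos exposed singly from 6 to 120 hpf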
Inconclusive results are not listed. Calls of active or inactive are those of the source. The calls were made as follows: active = hit-call score of the fitted dose curve at least 0.9, where 1 is the maximum; inconclusive = response in the unintended direction; inactive = score below 0.9.
Possible outcomes: Y = active, N = inactive

compound: CCCCCCc1ccc(O)cc1O
class: N
//
compound: Oc1ccc2c(c1)-c1ccccc1C2
class: Y
//
compound: CC1(C)C(=O)N(Br)C(=O)N1Br
class: N
//
compound: CC(C)=CCCC(C)=CC=O
class: N
//
compound: CCCCCCCCCCCCCCCO
class: N
//
compound: CC[C@H](C)C(=O)O[C@H]1C[C@@H](C)C=C2C=C[C@H](C)[C@H](CC[C@@H]3C[C@@H](O)CC(=O)O3)[C@H]21
class: N
//
compound: Clc1nc(Cl)c(Cl)c(Cl)c1Cl
class: N
//
compound: O=C(OC[C@H]1O[C@@H](OC(=O)c2cc(O)c(O)c(OC(=O)c3cc(O)c(O)c(O)c3)c2)[C@H](OC(=O)c2cc(O)c(O)c(OC(=O)c3cc(O)c(O)c(O)c3)c2)[C@@H](OC(=O)c2cc(O)c(O)c(OC(=O)c3cc(O)c(O)c(O)c3)c2)[C@@H]1OC(=O)c1cc(O)c(O)c(OC(=O)c2cc(O)c(O)c(O)c2)c1)c1cc(O)c(O)c(OC(=O)c2cc(O)c(O)c(O)c2)c1
class: N
//
compound: C=CCCCCCCCCC(=O)O
class: N
//
compound: COC(=O)c1ccccc1O
class: N
//
compound: Cc1ccc(O)cc1
class: N
//
compound: O=C(CCCCCCCCc1cccnc1)N1CCC(C=C(c2ccccc2)c2ccccc2)CC1
class: N
//
compound: CC(=O)OC[C@H]1O[C@@](COC(C)=O)(O[C@H]2O[C@H](COC(C)=O)[C@@H](OC(C)=O)[C@H](OC(C)=O)[C@H]2OC(C)=O)[C@@H](OC(C)=O)[C@@H]1OC(C)=O
class: N
//
compound: Nc1ccc(Nc2ccccc2)cc1
class: Y
//
compound: O=C1CCC(N2C(=O)c3ccccc3C2=O)C(=O)N1 (centres undefined)
class: N
//
compound: CC[C@H]1OC(=O)[C@H](C)[C@@H](O[C@H]2C[C@@](C)(OC)[C@@H](O)[C@H](C)O2)[C@H](C)[C@@H](O[C@@H]2O[C@H](C)C[C@H](N(C)C)[C@H]2O)[C@](C)(O)C[C@@H](C)C(=O)[C@H](C)[C@@H](O)[C@]1(C)O
class: N
//
compound: CC(C)(O)c1coc(S(=O)(=O)NC(=O)Nc2c3c(cc4c2CCC4)CCC3)c1
class: N
//
compound: Cn1c(=O)cc(Oc2ccc(F)cc2F)c2cnc(NCC(C)(C)O)nc21
class: N
//
compound: Nc1cccc(N)c1
class: N
